# System: 885512-296-R-J2-PDC complex spheroid growth, % test/control
# measurement_protocol: Anticancer human tumor 885512-296-R-J2-PDC patient-derived breast carcinoma cell line growth inhibition [AhR]
# assay_setup: second compound 1 µM; first compound 0.1 µM; hits give low values
Sorting guide: entries reporting viability, T/C beneath 6% go in the Y pile, the rest go in the N pile.

[
  {
    "compound": "CC1COCCN1c1cc(-c2ccnn2C)c2ccnc(-c3ccn[nH]3)c2n1 (stereo unspecified) + Cc1cncc(-c2nc(NCCc3c[nH]c4ccccc34)c3ncn(C(C)C)c3n2)c1",
    "classification": "N"
  },
  {
    "compound": "COc1cc(C2c3cc4c(cc3C(OC3OC5COC(C)OC5C(O)C3O)C3COC(=O)C23)OCO4)cc(OC)c1O (stereo unspecified) + Cc1cncc(-c2nc(NCCc3c[nH]c4ccccc34)c3ncn(C(C)C)c3n2)c1",
    "classification": "N"
  },
  {
    "compound": "COc1cccc2c1C(=O)c1c(O)c3c(c(O)c1C2=O)CC(O)(C(=O)CO)CC3OC1CC(N)C(O)C(C)O1 (stereo unspecified) + CC(CO)NC(=O)c1cc(-c2ccc(Cl)cc2)nn(-c2cnn(C)c2)c1=O",
    "classification": "N"
  },
  {
    "compound": "Nc1ccn(C2OC(CO)C(O)C2(F)F)c(=O)n1 (stereo unspecified) + CC(CO)NC(=O)c1cc(-c2ccc(Cl)cc2)nn(-c2cnn(C)c2)c1=O",
    "classification": "Y"
  },
  {
    "compound": "CC[C@@]1(O)C(=O)OCc2c1cc1n(c2=O)Cc2cc3c(CN(C)C)c(O)ccc3nc2-1 + CC(CO)NC(=O)c1cc(-c2ccc(Cl)cc2)nn(-c2cnn(C)c2)c1=O",
    "classification": "N"
  },
  {
    "compound": "Nc1ccn(C2OC(CO)C(O)C2(F)F)c(=O)n1 (stereo unspecified) + Cc1ccccc1N=Nc1ccc(NC(=O)c2ccnn2C)c(C)c1",
    "classification": "Y"
  }
]

---

Parameter: viability, T/C. Scope: all listed entries.
# Tested on: 885512-296-R-J2-PDC complex spheroid growth, % test/control
# measurement_protocol: Anticancer human tumor 885512-296-R-J2-PDC cell line growth inhibition [AhR];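 note: spheroids exposed to compounds for seven days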
# assay_setup: second compound 1 µM; first compound 0.316 µM; hits give low values

[
  {
    "compound": "Nc1ncn(C2CC(O)C(CO)O2)c(=O)n1 (stereo not drawn) + Cc1ccccc1N=Nc1ccc(NC(=O)c2ccnn2C)c(C)c1",
    "units_of_measure": "%",
    "viability, T/C": 80
  },
  {
    "compound": "COc1cccc2c1C(=O)c1c(O)c3c(c(O)c1C2=O)CC(O)(C(=O)CO)CC3OC1CC(N)C(O)C(C)O1 (stereo not drawn) + CC(CO)NC(=O)c1cc(-c2ccc(Cl)cc2)nn(-c2cnn(C)c2)c1=O",
    "units_of_measure": "%",
    "viability, T/C": 6.76
  },
  {
    "compound": "COc1cccc2c1C(=O)c1c(O)c3c(c(O)c1C2=O)CC(O)(C(=O)CO)CC3OC1CC(N)C(O)C(C)O1 (stereo not drawn) + Cc1ccccc1N=Nc1ccc(NC(=O)c2ccnn2C)c(C)c1",
    "units_of_measure": "%",
    "viability, T/C": 2.55
  }
]
